test system: normal primary NK cells, pool 1 (3 donors) (IL-2 2.5 ng/mL); experiment: percent inhibition of viability; higher = more inhibition; conditions: 72 h; 25 nM;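 note: normalised to DMSO-only wells as negative and benzethonium chloride as positive control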
Label met when percent inhibition of viability is strictly below 5%; otherwise label not met.

Worked examples, 2 compounds total:
> print(dat)
                                   compound  category.label
1  Cc1cc(Nc2ncc(Cl)c(Nc3ccccc3S(=O)(=O)C(C)C)n2)c(OC(C)C)cc1C1CCNCC1 [Ceritinib] (max concentration tested 2500 nM)             met
2  OCCn1cc(-c2cnc3nnn(Cc4ccc5ncccc5c4)c3n2)cn1 (max concentration tested 2500 nM)         not met

Attention now shifts to the item below.
Does Nc1nc(NC2CC2)cc(-c2cccc(Cl)c2Cl)n1 [TH588] (max concentration tested 25000 nM) have percent inhibition of viability strictly under 5%?
not met

----------
test system: normal primary NK cells, pool 2 (3 donors) (IL-2 2.5 ng/mL); experiment: percent inhibition of viability; higher = more inhibition; details: 72 h; 10 nM
recorded_endpoint: percent inhibition of viability (%)
Numbers only, in %.

compound	system_under_test	recorded_endpoint	val
Cc1ccc(NC(=O)c2ccc(CN3CC[C@H](N(C)C)C3)c(C(F)(F)F)c2)cc1Nc1nccc(-c2cncnc2)n1 [Bafetinib] (max concentration tested 1000 nM)	normal primary NK cells, pool 2 (3 donors) (IL-2 2.5 ng/mL)	percent inhibition of viability	-6.83
CN[C@@H]1C[C@H]2O[C@@](C)([C@@H]1OC)n1c3ccccc3c3c4c(c5c6ccccc6n2c5c31)C(=O)N[C@H]4O [UCN-01] (max concentration tested 10000 nM)	normal primary NK cells, pool 2 (3 donors) (IL-2 2.5 ng/mL)	percent inhibition of viability	6.32
O=C(CCBr)N1CCN(C(=O)CCBr)CC1 [Pipobroman] (max concentration tested 10000 nM)	normal primary NK cells, pool 2 (3 donors) (IL-2 2.5 ng/mL)	percent inhibition of viability	-3.61
CCc1c(C(=O)C(N)=O)c2c(OCC(=O)O)cccc2n1Cc1ccccc1 [Varespladib] (max concentration tested 10000 nM)	normal primary NK cells, pool 2 (3 donors) (IL-2 2.5 ng/mL)	percent inhibition of viability	-4.05
CS(=O)(=O)c1ccc(C2=C(c3ccccc3)C(=O)OC2)cc1 [Rofecoxib] (max concentration tested 10000 nM)	normal primary NK cells, pool 2 (3 donors) (IL-2 2.5 ng/mL)	percent inhibition of viability	1.86

--- query ---
Short answer for CN1CCc2c(c3ccccc3n2Cc2ccc(C(=O)NO)cc2)C1 [Tubastatin A] (max concentration tested 10000 nM) : percent inhibition of viability was 0.66

----------
system: YT (IL-2 2.5 ng/mL); assay: percent inhibition of viability; higher = more inhibition; settings: 72 h; 0.1 nM
Provide the reported percent inhibition of viability of each item.
Answers are plain numbers, in %.

Known percent inhibition of viability results, listed for orientation:
> print(dat)
                                   compound    val
1  COc1cc2nccc(Oc3ccc(NC(=O)C4(C(=O)Nc5ccc(F)cc5)CC4)cc3)c2cc1OC [Cabozantinib] (max concentration tested 1000 nM)  -1.79
2  C[C@@H](Oc1ccc2[nH]nc(/C=C/c3cnn(CCO)c3)c2c1)c1c(Cl)cncc1Cl (max concentration tested 1000 nM)  -2.34
3  O=C1c2c(O)ccc(O)c2C(=O)c2c(NCCNCCO)ccc(NCCNCCO)c21 [Mitoxantrone] (max concentration tested 1000 nM)   -1.6
4  CC(=O)Nc1ccc(C(=O)Nc2ccccc2N)cc1 [Tacedinaline] (max concentration tested 1000 nM)  -4.71

--- query ---
Record for CC(C)n1nc(-c2ccc3oc(N)nc3c2)c2c(N)ncnc21 [INK128] (max concentration tested 1000 nM) under target or system YT (IL-2 2.5 ng/mL): percent inhibition of viability reported as -1.84
